Where these numbers come from: the nanobody polyreactivity screen of Harvey et al. (2022)

Experiment: yeast display, Sf9 membrane polyspecificity reagent, FACS + sequencing; frameworks hold sequencing errors
Assay Readout: polyreactivity (PSR sort gate)

Worked cases, answers included:
QVQLVESGGGLVQAGGSLRLSCAASGLIFLSHTMGWYRQAPGKERELVATIDGGAGSTYYADSVKGRFTFSRDNAKNTVYLQMNSLKPEDTAVYYCAATTIPGWFGSFPVSAGDYWGQGTQVTVSS :: low polyreactivity
QVQLVESGGGLVQAGGSLRLSCAASGITFPGYAMGWYRQAPGKERELVAVIRKSGTSTGGNTYYADSVKGRFTISRDNAKNTVYLQMNSLKPEDTAVYYCAKKYVWTHNYWGQGTQVTVSS :: low polyreactivity
QVQLVESGGGLVQAGGSLRLSCAASGLIFNYYAMGWYRQAPGKERELVAAISYNGGTTYYADSVKGRFTISRDNAKNTVYLQMNSLKPEDTAVYYCAAEQLVSGYDYWGQGTQVTVSS :: low polyreactivity
QVQLVESGGGLVQAGGSLRLSCAASGSTFYYYAMGWYRQAPGKVRELVATISWSGDSTYADSVKGRFTISRDNAKNTVYLQMNSLKPEDTAVYYCATSGDWWGFRYVYWGQGTQVTVSS :: low polyreactivity
QVQLVESGGGLVQAGGSLRLSCAASGFIFRYYAMGWYRQAPGKERELVATISSGGGTHYADSVKGRFTISRDNAKNTVYLQMNCLKPEDTAVYYCNKVSYRRRSVLLHYDYWGQGTQVTVSS :: high polyreactivity
QVQLVESGGGLVQAGGSLRLSCAASGFILYYYAMGWSRQAPGKERELVAAISWSGDSTYYADSVKGRFTISRDNAKNTVYLQMNSLKPEDTAVYYCAATWQLTHRYYWGQGTQVTVSS :: low polyreactivity

get_value(item= `QVQLVESGGGLVQAGGSLRLSCAASGRIFVLYAMGWYRHSPGKERELVAAINWSGGSTFYADSVKGRFTISRDNAKNTVYLQMNSLKPEDTAVYYCNARGLRVKYDYWGQGTQVTVSS` , readout=polyreactivity (PSR sort gate)) returns high polyreactivity

polyreactivity (PSR sort gate) in this record for `QVQLVESVGGLVQAGGSLRLSCPASGSTFTDYAMGWYRQAPGKERELVAANSWSGGSTYYADSVKGRFTISRDNAKNTVYLQMNSLKPEDTAVYYCAFRYHGYDYWGQGTQVTVSS` : high polyreactivity

For `QVQLVESGGGLVQAGGSLRLSCAASGRTFWWYAMGWYRQEPGKERELVAAITWSGGSTYYADSVKGRFTISRDNAKNTVYLQMNSLKPEDTAVYYCAAYVHNKYDYWGQGTQVTVSS` the sequence record lists polyreactivity (PSR sort gate) as low polyreactivity

Notebook: `QVQLVESGGGLVQAGGSLRLSCAASGRIFDRNAMGWYRQAPGKERELVARISRTGGSTYYADSVKGRFTISRDNAKNTVYLQMNSLKPEDTAVYYCAASRGGGYDYWGQGTQVTVSS` , polyreactivity (PSR sort gate) read as high polyreactivity

Reported polyreactivity (PSR sort gate) ( `QVRLVESGGGLVQAGGSLRLSCAASGRIFQYYAMGWYRQAPGKERELVASITSGGGSTYYADSVKGRFTISRDNAKNTVYLQMNSLKPEDTAVYYCNARWYGLSTRYDYWGQGTQVTVSS` ) = low polyreactivity

Summary for this sequence, `QVQLVESGGGLVQAGGSLRLSCAASGFIFVTYAMGWYRQAPGKERELVAAITNSGGTTYYADSVKGRFTISRDNAKNTVYLQMISLKPEDSAVYYCNKPYGAETAHREFDYWGQGTQVTVSS` : polyreactivity (PSR sort gate) is low polyreactivity

Noted for `QVQLVESGGGLVQAGGSLRLSCAASGRIFVQYAMGWYRQAPGKERELVAAISGSGGRTYYADSVKGRFTISRDNAKNTVYLQMNSLKPEDTAVYYCNTARRHGQTQGGDYWGQGTQLTVSS` : its polyreactivity (PSR sort gate) reads high polyreactivity

// recorded polyreactivity (PSR sort gate) for `QVQLVESGGGLVQAGGSLRLSCAASGSTFVVNAMGWYRQAPGKEREFVAAITWNGGSTYADSVKGRFTISRDNAKNTVYLQMNSLKPEDTAVYYCSADLSYWDDFDYWGQGTQVTVSS` : low polyreactivity

Form field polyreactivity (PSR sort gate), entry `QVQLVESGGGLVQAGGSLRLSCAASGSTFDIYAMGWYRQAPGKERELVAAITFSGGSTYYADSVKGRFTISRDNAKNTVYLQMNSLKPEDTAVDYCAARNDYYKTFSGYDYWGQGTQVTVSS` : low polyreactivity

polyreactivity (PSR sort gate) for `QVQLVESGGGLVQAGGSLRLSCAASGRTFWYYAMGWNRQAPGKERELVAAITRGTSTYADSVKGRFTISRDNAKNTVYLQMNSLKPEDTAVFYCAADTWVTRNSRYDYWGQGTQVTVSS` is high polyreactivity

Form: sequence = `QVQLVESGGGLVQAGGSLRLSCAASGLIFSYNAMGWYRQAPGKERELVAAISYSGGSTYYADSVKGRYTISRDNAKYTVYLQMNSLKPEDTAVYYCAAVLSPDFYYWGQGTQVTVSS` ; polyreactivity (PSR sort gate) = high polyreactivity

Consider `LVQLVESGGGLVQAGGSLRLSCAASGRTFRLNALGWYRPAPGNERELVARITGSSGGSTYSADSVKGRFTISRDNAKNTVYLQMNSLKPEDTAVYYCAARYTPRGKRYDYWGQGTQVTGSS` . Its measured polyreactivity (PSR sort gate) is high polyreactivity

Short answer for `QVQLVESGGGLVQAGGRLRLSCAASGFTFAYYAMGWYRQAPGKERELVAAIRWSGTRTYYADSVKGRFTISRDHAKNTVYLQMNSLKPEDTAVYYCAKGIWYGTSGYYYWGQGTQVTVSS` : polyreactivity (PSR sort gate) was high polyreactivity

Looking up `QVQLVESGGGLVQAGGSLRLSCAASGRTFYGYTMGWYRQAPGKERELDAAIRTSGGSTYADSVKGRFTISRDNAKNTVYLQMNSLKPEDTAVYYCAAPRVVYYGTAPAYRYDYWGQGTQVTVSS` , I see its polyreactivity (PSR sort gate) listed as high polyreactivity

According to the records, this sequence `QVQLVESGGGLVQAGGSLRLSCAASGRIFTTNAMGWYRQAPGKERELVAAITYSGGTTYYADSVKGRFTISRDNAKNTVYLQMNSLKPEDTAVYYCAADVKFSTPYDYWGQGTQVTVSS` displays polyreactivity (PSR sort gate) of low polyreactivity

---

Experiment: yeast display, Sf9 membrane polyspecificity reagent, FACS + sequencing; frameworks hold sequencing errors
Assay Readout: polyreactivity (PSR sort gate)

Some entries whose results are on file:
QVQLVESCGGLLQAGGSLPLSCPASGSISSYYAMGWYRQAPGKERELVASITSGASTNYADSVKGRFTISRDNAKNTVYLQMNSLKPEDTAVYYCAAYVVTYYYGTGYYSYDYWGQGSQVTVSS :: low polyreactivity
QVQLVESGGGLVQAGGSIRLSCAASGFIFKWYAMGWYRQAPGKERELVAVINRSGSTYYADSVKGRFTISRDNAKNTVYLQMNSLKPEDTAVYYCAAVQQYSSVYYYTYDYWGQGTQVTVSS :: high polyreactivity
QVQLVESGGGLYQARGSLRLSCAASGSIFLDNAKGWYRQAPGKERELVAAISSGGNTNYADSVKGRFTISRDNAKNTVYLQINSLKPEDTAVYYCAADPTKWHYYLPRYYYWGQGTQVTLSS :: low polyreactivity
QVQLVESWGGLVQAGGSLRLSSAASGFTFVTYGMGWYRQAPGKERELVARISSSSTNYADSVKGRFTISRDNAKNTVYLQMKSLKPEDTAVYYCAAVHYRWWYRSAYDYWGQGTQVTVSS :: low polyreactivity
QVQLVESGGGLVQAGGSLRLSCAASGFTFVRNTMGWYRQAPGKERELVAAISRSGGSTYYADSVKGRFTISRDNAKNTVYLQMNSLKPEDTAVYYCNAYRYVHYDWGQGTQVTVSS :: high polyreactivity
QVQLVESWGGLVQAGGSLRLSCAASGRIFWAYAMGWYRHAPGKERELVAGITFTGGRTYYADSVKGRFTISRDNAKNTVYLQMNSLKPEDTAVYYCAAAGLDVGRKDRDGYWGQGTQVTVSS :: low polyreactivity
QVQLVESGGGLVQAGGSLRLSCAASGRTFYGYAMGWYRQAPGKERELVAGITFRGSSTYYADSVKGRFTISRDNAKNTVYLQMNSLKPEDTAVYYCNVPYGNSHVGYDYWGQGTQVTVSS :: high polyreactivity
QVQLVESGGGLVQAGGSLSLICAASGGIIRYKAMGWYRQAPGKERELVAAISSGGNTNYADSVKGRFTISRDNAKNTVNLQMNSLKPEDTAVYYSAKAAPWRVYYHKAYGYDYWGQGPQVTVSS :: high polyreactivity

polyreactivity (PSR sort gate) in this record for `QVQLVESGGGLVQAGGSLRLSCAASGFTFDVYTMGWYRQAPGKERELVASITYSGGDTYADSVKGRFTISRDNAKNTVYLQMNRLKPEDTAVYYCNAVVYYYLDEYWGQGTQVTVSS` : high polyreactivity

Sample `QVQLVESGGGLVQSGGSLRLTCAASGYIFGYYTMGWYRQAPGKERELVATIRSGGSTYYADSVKGRFTISRDNAKNTVFLHMNSLKAEDTAVYYCAIRVRRISEYGYWGQGTQVTVSS` ; polyreactivity (PSR sort gate) observed: high polyreactivity

What the record says about `QVQLVESGGGLVQAGGSLRLSCAASGSIFQYNAMGWYRQAPGKERELVAAINGGGSTYYADSVKGRFTISRDNAKNTVYLQMNSLKPEDTAVYYCAADGGAYSYRGPGKFGIEDSWGQGTQVTVSS` : polyreactivity (PSR sort gate) is low polyreactivity
